Reference for the values: ChEMBL document CHEMBL2218924

# System: Tyrosine-protein kinase JAK2 (Homo sapiens) (UniProt O60674)
# Sequence (O60674 whole entry): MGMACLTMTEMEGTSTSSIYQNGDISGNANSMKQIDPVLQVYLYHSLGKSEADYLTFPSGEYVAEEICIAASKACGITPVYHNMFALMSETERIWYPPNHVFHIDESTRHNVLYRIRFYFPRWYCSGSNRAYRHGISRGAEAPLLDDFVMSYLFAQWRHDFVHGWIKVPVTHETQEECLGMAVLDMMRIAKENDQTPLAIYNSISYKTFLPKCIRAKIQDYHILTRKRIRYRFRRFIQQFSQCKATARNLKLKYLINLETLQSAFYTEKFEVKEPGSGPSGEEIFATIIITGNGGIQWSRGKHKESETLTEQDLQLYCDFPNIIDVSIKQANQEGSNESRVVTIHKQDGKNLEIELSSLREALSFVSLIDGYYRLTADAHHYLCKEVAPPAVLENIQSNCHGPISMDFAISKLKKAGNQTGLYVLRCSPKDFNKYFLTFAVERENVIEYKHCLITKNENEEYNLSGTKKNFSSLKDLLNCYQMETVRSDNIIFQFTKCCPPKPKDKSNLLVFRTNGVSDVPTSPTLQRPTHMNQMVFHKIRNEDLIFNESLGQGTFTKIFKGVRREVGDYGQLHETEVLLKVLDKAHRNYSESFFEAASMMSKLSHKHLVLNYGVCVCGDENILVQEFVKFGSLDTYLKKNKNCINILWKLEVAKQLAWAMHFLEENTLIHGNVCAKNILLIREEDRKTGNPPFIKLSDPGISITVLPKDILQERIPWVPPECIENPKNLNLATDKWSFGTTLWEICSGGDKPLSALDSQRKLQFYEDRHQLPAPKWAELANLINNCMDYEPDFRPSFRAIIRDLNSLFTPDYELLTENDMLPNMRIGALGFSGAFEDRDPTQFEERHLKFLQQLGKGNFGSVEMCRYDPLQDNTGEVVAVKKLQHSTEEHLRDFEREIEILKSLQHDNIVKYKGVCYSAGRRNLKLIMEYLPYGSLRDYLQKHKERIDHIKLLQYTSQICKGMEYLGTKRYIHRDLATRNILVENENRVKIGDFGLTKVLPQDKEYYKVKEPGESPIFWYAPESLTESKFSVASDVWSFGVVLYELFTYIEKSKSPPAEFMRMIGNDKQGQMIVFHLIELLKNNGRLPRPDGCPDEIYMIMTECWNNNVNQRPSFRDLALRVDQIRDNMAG
# Measurement Conditions: at 1 µM
Catalogue of residual activity readings, one per entry.
Give the value in % but do not write % after it.

// solved cases for residual activity follow
Nc1n[nH]c2nnc(-c3c(-c4ccccc4)nn4ccccc34)cc12 | 95
CC(=O)O/N=C1\C(=C2\C(=O)Nc3cc(Br)ccc32)Nc2ccccc21 | 103
CCN(CC)CCCCN1c2ccccc2Oc2ccc(Cl)cc21 | 107
Cn1nc2c3c(cccc31)C(=O)c1ccccc1-2 | 93

What residual activity value was documented for this compound, `O=c1c2ccccc2[nH]c(=S)n1CCN1CCC(=C(c2ccc(F)cc2)c2ccc(F)cc2)CC1` ?
122

Next compound: `N#C/C(=C(\N)Sc1ccc(N)cc1)c1ccccc1C(F)(F)F`
99

Next compound: `CC(C)n1cnc2/c(=N/c3cccc(Cl)c3)nc(NCCO)[nH]c21`
92

Next compound: `O=c1cc(-c2cccc3c2Sc2ccccc2S3)oc(N2CCOCC2)c1`
98

Next compound: `Cc1cc(Nc2nc(-c3ccccc3)nc3ccccc23)n[nH]1`
14

Next compound: `Cc1cc2ncc(-c3ccccc3)nc2cc1C`
101

Next compound: `CNc1cc2c(Nc3cccc(Br)c3)ncnc2cn1`
70

====

Catalogue of residual activity readings, one per entry.
# System: Hepatocyte growth factor receptor (Homo sapiens)
# Measurement Conditions: at 1 µM
Give the value in % but do not write % after it.

Request: residual activity, test system Hepatocyte growth factor receptor (Homo sapiens), entry `Cc1ccc(S(=O)(=O)/C=C/C#N)cc1`
96

Next molecule: `Cc1cc(Nc2nc(-c3ccccc3)nc3ccccc23)n[nH]1`
94

Next molecule: `Oc1n[nH]c2nnc(-c3c(-c4ccccc4)nn4ccccc34)cc12`
104

Next molecule: `Cc1cc2ncc(-c3ccccc3)nc2cc1C`
87

Next molecule: `Oc1c2ccccc2c2c3c(cccc13)N=N2`
87

Next molecule: `COc1cc2ncnc(Nc3ccc(NC(=O)c4ccccc4)cc3)c2cc1OC`
88

Next molecule: `COc1cc2ncc(-c3ccccc3)nc2cc1OC`
92

Next molecule: `O=C1NC(=O)c2c1c1c3ccccc3[nH]c1c1[nH]c3cc(Br)ccc3c21`
120

====

# System: Inhibitor of nuclear factor kappa-B kinase subunit beta (Homo sapiens) (UniProt O14920)
# Sequence (O14920 whole entry): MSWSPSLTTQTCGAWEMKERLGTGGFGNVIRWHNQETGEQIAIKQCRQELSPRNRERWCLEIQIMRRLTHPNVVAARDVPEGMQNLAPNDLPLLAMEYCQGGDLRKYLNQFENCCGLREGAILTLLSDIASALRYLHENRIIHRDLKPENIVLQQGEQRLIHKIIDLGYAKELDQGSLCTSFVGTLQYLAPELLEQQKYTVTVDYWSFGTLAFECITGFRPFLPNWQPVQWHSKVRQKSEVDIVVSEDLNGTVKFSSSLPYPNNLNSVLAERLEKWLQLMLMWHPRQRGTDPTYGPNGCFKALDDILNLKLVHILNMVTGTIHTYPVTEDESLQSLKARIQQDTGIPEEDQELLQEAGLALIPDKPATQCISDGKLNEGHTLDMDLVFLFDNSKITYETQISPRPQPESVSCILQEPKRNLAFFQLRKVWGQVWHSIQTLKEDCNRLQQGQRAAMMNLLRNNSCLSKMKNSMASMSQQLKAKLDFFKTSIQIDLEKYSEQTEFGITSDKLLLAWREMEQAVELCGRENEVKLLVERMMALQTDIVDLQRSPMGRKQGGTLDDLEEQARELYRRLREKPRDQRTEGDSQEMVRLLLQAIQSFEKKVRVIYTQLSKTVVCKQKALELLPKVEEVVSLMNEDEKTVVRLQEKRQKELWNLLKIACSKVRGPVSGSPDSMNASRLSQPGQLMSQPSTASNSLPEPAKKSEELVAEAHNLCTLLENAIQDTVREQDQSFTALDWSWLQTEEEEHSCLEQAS
# Measurement Conditions: at 10 µM
Catalogue of residual activity readings, one per entry.
Give the value in % but do not write % after it.

// solved cases for residual activity follow
Oc1ccc(Nc2nc(-c3ccc(Cl)cc3)cs2)cc1 | 110
CN(C)CCCn1cc(C2=C(c3c[nH]c4ccccc34)C(=O)NC2=O)c2ccccc21 | 82
Nc1nc(Nc2ccc(S(N)(=O)=O)cc2)nn1C(=S)Nc1c(F)cccc1F | 6
CO[C@@H]1[C@H](N(C)C(=O)c2ccccc2)C[C@H]2O[C@]1(C)n1c3ccccc3c3c4c(c5c6ccccc6n2c5c31)C(=O)NC4 | 84
CNc1cc2c(Nc3cccc(Br)c3)ncnc2cn1 | 76
O=C1Nc2cc(Br)ccc2/C1=C1/Nc2ccccc2/C1=N\O | 85

What residual activity value was documented for this compound, `NC(=O)c1ccc2[nH]c(-c3ccc(Oc4ccc(Cl)cc4)cc3)nc2c1` ?
106

Next compound: `COc1ccc(S(=O)(=O)N(CCO)c2ccccc2CN(C)C/C=C/c2ccc(Cl)cc2)cc1`
110

Next compound: `c1ccc2c(-c3ccncc3)c[nH]c2c1`
73

Next compound: `Cn1cnc2cc3c(Nc4cccc(Br)c4)ncnc3cc21`
94

Next compound: `Ic1cccc(CSc2nnc(-c3ccncc3)o2)c1`
79

Next compound: `N#Cc1cnc2cnc(NCc3cccnc3)cc2c1Nc1ccc(F)c(Cl)c1`
74

Next compound: `O=C1NC(=O)/C(=C\c2ccc3nccnc3c2)S1`
69

Next compound: `CCN(CC)CCCCN1c2ccccc2Oc2ccc(Cl)cc21`
105

====

# System: Activin receptor type-1B (Homo sapiens) (UniProt P36896)
# Sequence (P36896 whole entry): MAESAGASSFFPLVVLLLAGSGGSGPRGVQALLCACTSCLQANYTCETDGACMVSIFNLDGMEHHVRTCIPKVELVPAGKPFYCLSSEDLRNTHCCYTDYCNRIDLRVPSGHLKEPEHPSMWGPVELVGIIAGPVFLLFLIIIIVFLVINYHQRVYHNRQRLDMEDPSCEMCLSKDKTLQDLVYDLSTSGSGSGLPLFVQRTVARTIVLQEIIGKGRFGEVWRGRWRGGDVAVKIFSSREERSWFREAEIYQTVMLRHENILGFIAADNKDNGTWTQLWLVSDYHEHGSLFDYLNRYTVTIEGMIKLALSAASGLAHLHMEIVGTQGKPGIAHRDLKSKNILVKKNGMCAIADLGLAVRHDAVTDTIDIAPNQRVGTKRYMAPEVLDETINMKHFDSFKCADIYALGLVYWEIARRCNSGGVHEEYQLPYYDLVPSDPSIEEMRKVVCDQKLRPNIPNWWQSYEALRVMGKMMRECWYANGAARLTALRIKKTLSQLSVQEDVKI
# Measurement Conditions: at 10 µM
Measurement Name: residual activity (%)
Give the value in % but do not write % after it.

NC(=O)c1ccc2[nH]c(-c3ccc(Oc4ccc(Cl)cc4)cc3)nc2c1 | 97
Cc1cc(Nc2nc(-c3ccccc3)nc3ccccc23)n[nH]1 | 76
CC(=O)O/N=C1\C(=C2\C(=O)Nc3cc(Br)ccc32)Nc2ccccc21 | 119
c1ccc(-c2n[nH]c3c2oc2ccccc23)cc1 | 99
COc1cc2ncnc(N3CCN(C(=O)Nc4ccc(Oc5ccccc5)cc4)CC3)c2cc1OC | 97
Cn1cnc2cc3c(Nc4cccc(Br)c4)ncnc3cc21 | 82
Cc1nc2cc3nc(-c4cccs4)cnc3cc2n1C | 88
CNc1cc2c(Nc3cccc(Br)c3)ncnc2cn1 | 116
CO[C@H]1[C@@H](OC)C[C@H](C)[C@@H](OC)C2=CC(=O)C=C(NC(=O)/C(C)=C/C=C/[C@H](OC)[C@@H](OC(N)=O)/C(C)=C/[C@@H]1C)C2=O | 112

What residual activity value was documented for this compound, `COc1ccc(S(=O)(=O)N(CCO)c2ccccc2CN(C)C/C=C/c2ccc(Cl)cc2)cc1` ?
102

====

# System: Platelet-derived growth factor receptor alpha (Homo sapiens) (UniProt P16234)
# Sequence (P16234 whole entry): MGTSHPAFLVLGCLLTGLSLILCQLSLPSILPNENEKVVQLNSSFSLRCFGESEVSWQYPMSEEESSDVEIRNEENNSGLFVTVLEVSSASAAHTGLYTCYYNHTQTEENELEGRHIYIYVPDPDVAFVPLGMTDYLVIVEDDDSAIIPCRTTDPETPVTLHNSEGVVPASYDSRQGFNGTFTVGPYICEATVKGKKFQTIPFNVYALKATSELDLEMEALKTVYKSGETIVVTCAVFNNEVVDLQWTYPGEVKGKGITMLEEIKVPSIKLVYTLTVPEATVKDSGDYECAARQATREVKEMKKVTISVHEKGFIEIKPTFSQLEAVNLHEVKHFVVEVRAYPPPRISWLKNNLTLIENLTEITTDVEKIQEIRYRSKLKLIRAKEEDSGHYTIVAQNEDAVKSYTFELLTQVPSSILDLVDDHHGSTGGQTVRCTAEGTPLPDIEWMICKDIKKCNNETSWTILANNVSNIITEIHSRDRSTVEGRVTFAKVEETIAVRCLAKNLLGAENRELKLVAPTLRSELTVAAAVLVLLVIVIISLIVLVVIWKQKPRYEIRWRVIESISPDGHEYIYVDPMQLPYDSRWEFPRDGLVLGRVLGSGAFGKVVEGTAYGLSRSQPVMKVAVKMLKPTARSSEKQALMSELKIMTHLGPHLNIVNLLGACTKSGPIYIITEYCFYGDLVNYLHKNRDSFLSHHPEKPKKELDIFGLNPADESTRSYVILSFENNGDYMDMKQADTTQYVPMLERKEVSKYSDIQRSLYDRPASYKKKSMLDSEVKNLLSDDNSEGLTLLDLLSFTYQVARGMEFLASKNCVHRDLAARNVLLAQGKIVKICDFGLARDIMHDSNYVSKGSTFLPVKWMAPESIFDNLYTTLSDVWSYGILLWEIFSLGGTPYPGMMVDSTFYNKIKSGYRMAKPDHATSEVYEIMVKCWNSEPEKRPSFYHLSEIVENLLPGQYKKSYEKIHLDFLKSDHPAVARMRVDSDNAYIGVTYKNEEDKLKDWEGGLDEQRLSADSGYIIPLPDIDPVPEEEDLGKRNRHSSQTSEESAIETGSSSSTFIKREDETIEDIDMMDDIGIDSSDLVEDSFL
# Measurement Conditions: at 1 µM
Measurement Name: residual activity (%)
Give the value in % but do not write % after it.

CC[n+]1c(/C=C/N(C)c2ccccc2)n(-c2ccccc2)c2ccc(-c3nc4ccccc4s3)cc21 | 117

Request: residual activity, test system Platelet-derived growth factor receptor alpha (Homo sapiens) (UniProt P16234), entry `Nc1ccc2ncnc(NCCc3ccc(Oc4ccccc4)cc3)c2c1`
87

====

# System: Mitogen-activated protein kinase kinase kinase 5 (Homo sapiens)
# Sequence (whole entry): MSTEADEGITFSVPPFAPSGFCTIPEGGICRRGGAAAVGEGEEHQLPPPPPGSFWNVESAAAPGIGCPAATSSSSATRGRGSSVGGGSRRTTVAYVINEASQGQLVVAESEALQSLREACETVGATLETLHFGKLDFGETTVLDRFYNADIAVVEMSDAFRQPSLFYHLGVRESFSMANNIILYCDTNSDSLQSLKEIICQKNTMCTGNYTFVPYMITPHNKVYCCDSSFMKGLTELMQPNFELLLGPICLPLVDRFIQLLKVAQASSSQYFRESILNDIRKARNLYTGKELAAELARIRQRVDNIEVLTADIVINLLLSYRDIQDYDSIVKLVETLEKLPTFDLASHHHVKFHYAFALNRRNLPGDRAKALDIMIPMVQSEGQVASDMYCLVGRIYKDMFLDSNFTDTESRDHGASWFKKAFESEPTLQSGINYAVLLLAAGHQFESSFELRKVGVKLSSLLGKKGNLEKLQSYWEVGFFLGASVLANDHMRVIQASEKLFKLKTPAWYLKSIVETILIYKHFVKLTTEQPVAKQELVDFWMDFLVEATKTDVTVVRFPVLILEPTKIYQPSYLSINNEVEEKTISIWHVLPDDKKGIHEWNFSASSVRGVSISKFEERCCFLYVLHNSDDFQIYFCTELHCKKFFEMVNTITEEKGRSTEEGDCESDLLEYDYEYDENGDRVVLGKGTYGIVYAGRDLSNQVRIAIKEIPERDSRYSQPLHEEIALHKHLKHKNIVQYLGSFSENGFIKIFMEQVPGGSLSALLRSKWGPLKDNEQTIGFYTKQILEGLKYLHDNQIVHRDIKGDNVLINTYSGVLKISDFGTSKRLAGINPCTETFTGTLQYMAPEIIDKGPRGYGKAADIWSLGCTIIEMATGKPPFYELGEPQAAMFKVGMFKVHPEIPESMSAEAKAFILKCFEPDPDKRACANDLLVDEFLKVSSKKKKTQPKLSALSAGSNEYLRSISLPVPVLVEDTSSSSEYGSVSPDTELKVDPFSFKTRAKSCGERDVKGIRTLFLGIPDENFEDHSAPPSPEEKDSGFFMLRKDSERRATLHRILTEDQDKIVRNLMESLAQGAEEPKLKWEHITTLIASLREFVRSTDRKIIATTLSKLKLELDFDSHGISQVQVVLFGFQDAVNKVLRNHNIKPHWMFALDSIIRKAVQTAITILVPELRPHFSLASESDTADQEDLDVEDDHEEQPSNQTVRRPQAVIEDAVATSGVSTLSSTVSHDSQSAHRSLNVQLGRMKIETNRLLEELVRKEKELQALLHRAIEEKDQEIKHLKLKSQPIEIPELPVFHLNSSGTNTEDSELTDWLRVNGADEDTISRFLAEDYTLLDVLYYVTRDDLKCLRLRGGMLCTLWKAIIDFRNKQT
# Measurement Conditions: at 1 µM
Measurement Name: residual activity (%)
Give the value in % but do not write % after it.

// solved cases for residual activity follow
CC(=O)O/N=C1\C(=C2\C(=O)Nc3cc(Br)ccc32)Nc2ccccc21 | 92
O=c1cc(-c2cccc3c2Sc2ccccc2S3)oc(N2CCOCC2)c1 | 102
CC[n+]1c(/C=C/N(C)c2ccccc2)n(-c2ccccc2)c2ccc(-c3nc4ccccc4s3)cc21 | 106
O=c1c2ccccc2[nH]c(=S)n1CCN1CCC(=C(c2ccc(F)cc2)c2ccc(F)cc2)CC1 | 106
CCN(CC)C(=O)c1ccc(Nc2nc(OCC3CCCCC3)c3nc[nH]c3n2)cc1 | 80
COc1cccc(-c2cc(=O)c3ccccc3o2)c1N | 119
CC#CC(=O)Nc1cc2c(Nc3ccc(F)c(Cl)c3)ncnc2cn1 | 104

What residual activity value was documented for this compound, `N#CC(C#N)=C(N)/C(C#N)=C/c1ccc(O)cc1` ?
81
